Value source: paper PMC11659602

biological target: PADI4 (Homo sapiens); construct: His6; made in house; test: Surface plasmon resonance (SPR), single cycle kinetics; format: binding
Sequence (Q9UM07 whole entry): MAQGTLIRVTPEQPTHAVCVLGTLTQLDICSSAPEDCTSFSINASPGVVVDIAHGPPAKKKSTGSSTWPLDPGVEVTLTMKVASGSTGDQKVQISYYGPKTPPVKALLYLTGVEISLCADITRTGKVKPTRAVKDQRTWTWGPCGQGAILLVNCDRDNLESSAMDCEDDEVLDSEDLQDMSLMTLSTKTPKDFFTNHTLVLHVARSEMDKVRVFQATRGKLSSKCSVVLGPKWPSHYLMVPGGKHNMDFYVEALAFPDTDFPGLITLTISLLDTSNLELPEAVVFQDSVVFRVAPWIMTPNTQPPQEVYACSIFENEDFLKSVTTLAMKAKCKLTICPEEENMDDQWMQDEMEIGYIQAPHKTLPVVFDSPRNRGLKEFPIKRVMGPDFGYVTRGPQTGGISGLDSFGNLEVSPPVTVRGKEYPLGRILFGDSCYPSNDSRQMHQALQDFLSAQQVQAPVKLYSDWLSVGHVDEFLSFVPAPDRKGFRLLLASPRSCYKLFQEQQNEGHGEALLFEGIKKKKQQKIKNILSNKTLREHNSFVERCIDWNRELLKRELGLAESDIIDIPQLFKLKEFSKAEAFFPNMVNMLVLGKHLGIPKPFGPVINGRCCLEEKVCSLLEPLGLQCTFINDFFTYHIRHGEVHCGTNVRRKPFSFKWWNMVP
*1 amine or outer side, *2 acyl side, *3 side chain or, on linkers, in order; H or OH if unused. Where a SMILES comes first, the peptide text is derived from it. Bridges are numbered along the chain shown (N, C = ends). [ ]: non-standard residue; d: D form. Orn(fluoroacetimidoyl) = N=C(CF)NCCC[C@H](N)C(=O)O; X1 = N=C(CCl)NCCC[C@H](N[*:1])C(=O)[*:2]
testReadout: kinact/KI (M⁻¹ s⁻¹)
Your answer should be a plain number; it is taken to be in M⁻¹ s⁻¹.

Some solved entries appear below for comparison.
{"compound": "CC(C)C[C@@H]1NC(=O)[C@H](CCCCN)NC(=O)[C@H](CO)NC(=O)[C@H](CO)NC(=O)[C@H](Cc2ccc(O)cc2)NC(=O)[C@H](Cc2c[nH]cn2)NC(=O)[C@H](CCCNC(=N)CF)NC(=O)[C@H](CC(=O)O)NC(=O)[C@H](CC(C)C)NC(=O)[C@@H](Cc2ccc(O)cc2)NC(=O)CSC[C@@H](C(=O)NCC(N)=O)NC(=O)[C@H](Cc2ccc(O)cc2)NC1=O [cP4_15, yLD(2)HYSSKLYCG] ({CH2CO}-[dY]LD[Orn(fluoroacetimidoyl)]HYSSKLYCG-NH2; thioether N-12)", "testedTarget": "PADI4 (Homo sapiens)", "kinact/KI, M⁻¹ s⁻¹": 26600}
{"compound": "CC[C@H](C)[C@H](NC(=O)[C@H](Cc1c[nH]c2ccccc12)NC(=O)[C@H](CCC(=O)O)NC(=O)[C@@H]1CSCC(=O)N[C@H](Cc2ccc(O)cc2)C(=O)N[C@@H](C(C)C)C(=O)N[C@@H](Cc2ccc(O)cc2)C(=O)N[C@@H](CCCNC(=N)CF)C(=O)N[C@@H](CC(=O)O)C(=O)N1)C(=O)N[C@@H](CC(N)=O)C(=O)N[C@@H](CCCNC(=N)N)C(=O)N[C@@H](C)C(=O)NCC(N)=O [cP4_165, yVY(2)DCEWINRAG] ({CH2CO}-[dY]VY[Orn(fluoroacetimidoyl)]DCEWINRAG-NH2; thioether N-6)", "testedTarget": "PADI4 (Homo sapiens)", "kinact/KI, M⁻¹ s⁻¹": 1780}
{"compound": "N=C(N)NCCC[C@@H]1NC(=O)[C@H](Cc2ccc(O)cc2)NC(=O)[C@H](Cc2c[nH]cn2)NC(=O)[C@H](CCCNC(=N)CF)NC(=O)[C@H](CC(=O)O)NC(=O)[C@H](CCCNC(=N)N)NC(=O)[C@@H](Cc2ccc(O)cc2)NC(=O)CSC[C@@H](C(=O)NCC(N)=O)NC(=O)[C@H](Cc2ccc(O)cc2)NC(=O)[C@H](CCCCN)NC(=O)[C@@H]2CCCN2C(=O)[C@H](Cc2c[nH]cn2)NC1=O [PADI4_3_H4(2), yRD(2)HYRHPKYCG] ({CH2CO}-[dY]RD[Orn(fluoroacetimidoyl)]HYRHPKYCG-NH2; thioether N-12)", "testedTarget": "PADI4 (Homo sapiens)", "kinact/KI, M⁻¹ s⁻¹": 68000}

Consider the additional compound presented here.
Challenge: Query kinact/KI on PADI4 (Homo sapiens) for N=C(N)NCCC[C@@H]1NC(=O)[C@H](CCCNC(=N)CCl)NC(=O)[C@H](CC(=O)O)NC(=O)[C@H](Cc2ccc(O)cc2)NC(=O)[C@H](CCCCN)NC(=O)[C@H](CO)NC(=O)[C@@H](Cc2ccc(O)cc2)NC(=O)CSC[C@@H](C(=O)NCC(N)=O)NC(=O)[C@H](CC(=O)O)NC(=O)[C@H](CCCNC(=N)N)NC(=O)[C@@H]2CCCN2C(=O)[C@H](CO)NC1=O [Cl4] ({CH2CO}-[dY]SKYD[X1]RSPRDCG-NH2; thioether N-12)
Response given: 1170
